test.system: T1, R788A (Drosophila melanogaster, UniProt Q9W1K4 512-819, R788A)
T1 sequence: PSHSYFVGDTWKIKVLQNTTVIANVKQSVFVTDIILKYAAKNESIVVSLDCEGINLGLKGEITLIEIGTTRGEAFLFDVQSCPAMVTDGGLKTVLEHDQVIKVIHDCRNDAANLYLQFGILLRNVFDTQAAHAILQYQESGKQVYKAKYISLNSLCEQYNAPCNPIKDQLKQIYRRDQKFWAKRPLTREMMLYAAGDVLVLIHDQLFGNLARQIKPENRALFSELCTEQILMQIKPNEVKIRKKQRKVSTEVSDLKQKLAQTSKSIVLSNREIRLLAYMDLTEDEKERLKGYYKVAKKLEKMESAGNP
experiment.notes: fluorescence anisotropy; FA: 20 mM HEPES-NaOH pH 7.5, 100 mM NaCl, 10% glycerol, 20 C, 10 nM FAM-RNA; competition: 150 nM Egl512-819 + 10 nM FAM-K10 TLS, same buffer
condition.description: protein: recombinant; tags: N-terminal GST; label: 5'-6-FAM; hairpin with two bulges
readout.label: Kd (µM)

binder: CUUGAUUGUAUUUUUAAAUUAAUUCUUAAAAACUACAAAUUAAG (structured_RNA) [K10 TLS (FAM)]
observed.value: 0.207

The reported numbers originate from paper doi:10.1101/2025.08.03.668247.
